tested on: SK-MEL-28; test: NCI SRB assay; type: cell-based, human; conditions: SK-MEL-28, 5-dose; read-out: LC50 (the source's name)
metric-name: CC50

Query string: Any idea what its CC50 is? The compound is "Cc1ccc(-c2nc(Nc3ccccc3C(=O)O)c3ccccc3n2)cc1"
Result string: < 100 µM

----------
test system: NCI/ADR-RES; experiment: NCI SRB assay; format: cell-based, human; conditions: 10 μM
metric-name: GI% (%)
Write down the numeric answer in % and omit the unit.

For orientation, consider the following solved cases.
[
  {
    "line-notation": "COc1ccc(-c2nc(Nc3ccccc3C(=O)O)c3ccccc3n2)cc1",
    "GI%, %": 46
  },
  {
    "line-notation": "Cc1cccc(-c2nc(Nc3ccccc3C(=O)O)c3ccccc3n2)c1",
    "GI%, %": 75
  },
  {
    "line-notation": "Cc1ccc(-c2nc(Nc3ccccc3C(=O)O)c3ccccc3n2)cc1",
    "GI%, %": 95
  }
]

Query string: Find GI% (NCI/ADR-RES) for the entry "Cc1ccc(-c2nc(Nc3ccc(C(=O)O)cc3)c3ccccc3n2)cc1"
Result string: 24
